target or system: Fuc(a1-2)[Gal(a1-3)]Gal(b1-4)GlcNAc(b1-2)Man
method notes: glycan array binding signal (z-score within array); higher = stronger binding
condition: glycan notation: IUPAC condensed, linker removed
Shown is part of a subset that was picked to be rich in the strongest signals.
Param threshold (-0.3) applies to glycan array binding signal (z-score); output 1 when value >= threshold, 0 when value < threshold.

Reference set, count: 4
CML1 (Coprinopsis cinerea) (protein) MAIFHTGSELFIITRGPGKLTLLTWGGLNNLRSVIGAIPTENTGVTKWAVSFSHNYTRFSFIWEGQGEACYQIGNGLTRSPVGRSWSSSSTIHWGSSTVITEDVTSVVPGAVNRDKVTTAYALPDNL : 0
AT5G01260(PC)(40) (Arabidopsis thaliana), Q9LFB0 (protein) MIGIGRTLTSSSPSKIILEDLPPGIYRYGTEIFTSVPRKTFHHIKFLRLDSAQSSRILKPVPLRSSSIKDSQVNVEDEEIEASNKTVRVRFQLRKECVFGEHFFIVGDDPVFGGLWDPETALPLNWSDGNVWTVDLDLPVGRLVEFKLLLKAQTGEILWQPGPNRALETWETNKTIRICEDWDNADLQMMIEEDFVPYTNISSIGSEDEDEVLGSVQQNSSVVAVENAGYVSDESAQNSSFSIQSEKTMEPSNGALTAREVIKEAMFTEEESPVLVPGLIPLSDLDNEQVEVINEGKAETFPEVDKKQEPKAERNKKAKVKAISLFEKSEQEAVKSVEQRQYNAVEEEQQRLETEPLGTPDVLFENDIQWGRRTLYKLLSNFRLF : 0
Mermaid3 (Stilbonema majum) (protein) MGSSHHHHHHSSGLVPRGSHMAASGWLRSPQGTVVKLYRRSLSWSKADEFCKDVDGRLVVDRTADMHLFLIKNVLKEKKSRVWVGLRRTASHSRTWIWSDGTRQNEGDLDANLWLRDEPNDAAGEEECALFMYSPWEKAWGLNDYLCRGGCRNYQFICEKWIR : 1
MXA PilAct-eGFP (Myxococcus xanthus), Q59589 (protein) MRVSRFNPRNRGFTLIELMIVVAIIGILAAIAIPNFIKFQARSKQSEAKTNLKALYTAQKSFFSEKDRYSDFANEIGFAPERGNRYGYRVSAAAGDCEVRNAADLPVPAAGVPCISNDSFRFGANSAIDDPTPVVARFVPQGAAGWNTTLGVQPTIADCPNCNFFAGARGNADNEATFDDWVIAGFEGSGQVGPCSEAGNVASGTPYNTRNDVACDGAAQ : 1

Please examine the following record next.
Check the entry LBL-152 (Laetiporus bicolor), B0D650 (protein) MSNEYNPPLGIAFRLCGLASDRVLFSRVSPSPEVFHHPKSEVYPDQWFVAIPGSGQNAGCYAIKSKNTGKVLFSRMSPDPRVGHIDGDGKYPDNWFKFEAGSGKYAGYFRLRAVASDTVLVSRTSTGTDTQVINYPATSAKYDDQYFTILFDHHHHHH : does glycan array binding signal (z-score) equal or exceed -0.3? 1

Value source: the supplement of paper PMC8728848
